# Species: Rattus norvegicus
# protocol details: DrugMatrix - Regimen: Daily Repeat
# Format: toxicity, organism-based, Sprague-Dawley
# Set-up: regimen Daily Repeat, gender Male, age 6-8 weeks
# condition summary: in vivo, po, 0 mg/kg, 120 h, tissue Plasma, route oral GAVAGE, dose level Control, time 5 day, vehicle .5 % CMC
// NB: equality with 50 u/L counts as False; only ALANINE AMINOTRANSFERASE strictly below is True

- molecule: "CCn1cc(C(=O)O)c(=O)c2cc(F)c(N3CCNC(C)C3)c(F)c21 (stereo not drawn) [LOMEFLOXACIN]"
  answer label: "True"
- molecule: "C[C@@H]1O[C@@H](O[C@H]2C[C@@H](O)[C@]3(CO)[C@H]4[C@H](O)C[C@]5(C)[C@@H](C6=CC(=O)OC6)CC[C@]5(O)[C@@H]4CC[C@]3(O)C2)[C@H](O)[C@H](O)[C@H]1O [OUABAIN]"
  answer label: "True"
- molecule: "C[C@H]1[C@H](NC(=O)/C(=N\\OC(C)(C)C(=O)O)c2csc(N)n2)C(=O)N1S(=O)(=O)O [AZTREONAM]"
  answer label: "True"
- molecule: "CN(C)C(=O)C(CCN1CCC(O)(c2ccc(Cl)cc2)CC1)(c1ccccc1)c1ccccc1 [LOPERAMIDE]"
  answer label: "False"
- molecule: "COc1ccccc1[N+](=O)[O-] [2-NITROANISOLE]"
  answer label: "False"
- molecule: "CCC1=C(C)CN(C(=O)NCCc2ccc(S(=O)(=O)NC(=O)N[C@H]3CC[C@H](C)CC3)cc2)C1=O [GLIMEPIRIDE]"
  answer label: "False"
- molecule: "NC(=O)N1c2ccccc2CC(=O)c2ccccc21 [OXCARBAZEPINE]"
  answer label: "False"

====

HEMOGLOBIN by entry:
# Species: Rattus norvegicus
# protocol details: DrugMatrix - Regimen: Daily Repeat
# Assay type: toxicity, organism-based, Sprague-Dawley
# Design: regimen Daily Repeat, gender Male, age 6-8 weeks
# condition summary: in vivo, po, 0 mg/kg, 120 h, tissue Blood, route oral GAVAGE, dose level Control, time 5 day, vehicle .5 % CMC

- molecule: "COc1ccc2c(c1OC)C(=O)O[C@@H]2[C@H]1c2c(cc3c(c2OC)OCO3)CCN1C"
  units text: "G/DL"
  HEMOGLOBIN: 14.1
- molecule: "CCn1cc(C(=O)O)c(=O)c2cc(F)c(N3CCNC(C)C3)c(F)c21 (stereo not drawn)"
  units text: "G/DL"
  HEMOGLOBIN: 15.24
- molecule: "CCCCC1=NC2(CCCC2)C(=O)N1Cc1ccc(-c2ccccc2-c2nnn[nH]2)cc1"
  units text: "G/DL"
  HEMOGLOBIN: 14.18
- molecule: "C[C@@](Cc1ccc(O)c(O)c1)(NN)C(=O)O.O"
  units text: "G/DL"
  HEMOGLOBIN: 13.4
- molecule: "CN1C(=O)CN=C(c2ccccc2)c2cc([N+](=O)[O-])ccc21"
  units text: "G/DL"
  HEMOGLOBIN: 13.98
- molecule: "CN1CCN(C2=Nc3cc(Cl)ccc3Nc3ccccc32)CC1"
  units text: "G/DL"
  HEMOGLOBIN: 14.7
- molecule: "CCC1=C(C)CN(C(=O)NCCc2ccc(S(=O)(=O)NC(=O)N[C@H]3CC[C@H](C)CC3)cc2)C1=O [GLIMEPIRIDE]"
  units text: "G/DL"
  HEMOGLOBIN: 13.63
- molecule: "CCCNC(=O)NS(=O)(=O)c1ccc(Cl)cc1 [CHLORPROPAMIDE]"
  units text: "G/DL"
  HEMOGLOBIN: 14.7
- molecule: "C[C@@H]1O[C@@H](O[C@H]2C[C@@H](O)[C@]3(CO)[C@H]4[C@H](O)C[C@]5(C)[C@@H](C6=CC(=O)OC6)CC[C@]5(O)[C@@H]4CC[C@]3(O)C2)[C@H](O)[C@H](O)[C@H]1O"
  units text: "G/DL"
  HEMOGLOBIN: 13.53
- molecule: "CN(C)CCN(Cc1cccs1)c1ccccn1"
  units text: "G/DL"
  HEMOGLOBIN: 14.55
- molecule: "COc1cc(OC)c(C(=O)CCCN2CCCC2)c(OC)c1"
  units text: "G/DL"
  HEMOGLOBIN: 14.08
- molecule: "NC(=O)N1c2ccccc2CC(=O)c2ccccc21 [OXCARBAZEPINE]"
  units text: "G/DL"
  HEMOGLOBIN: 14.27
- molecule: "C[C@]12CC[C@@H]3c4ccc(O)cc4CC[C@H]3[C@@H]1C[C@@H](O)[C@@H]2O"
  units text: "G/DL"
  HEMOGLOBIN: 13.22
- molecule: "COc1ccccc1[N+](=O)[O-]"
  units text: "G/DL"
  HEMOGLOBIN: 12.07
- molecule: "CN(C)C(=O)C(CCN1CCC(O)(c2ccc(Cl)cc2)CC1)(c1ccccc1)c1ccccc1 [LOPERAMIDE]"
  units text: "G/DL"
  HEMOGLOBIN: 13.63
- molecule: "C#C[C@]1(O)CC[C@H]2[C@@H]3CCC4=CC(=O)CC[C@]4(C)[C@H]3CC[C@@]21C"
  units text: "G/DL"
  HEMOGLOBIN: 14.1
- molecule: "CCOc1nc2cccc(C(=O)O)c2n1Cc1ccc(-c2ccccc2-c2nnn[nH]2)cc1"
  units text: "G/DL"
  HEMOGLOBIN: 13.98
- molecule: "C[C@H]1[C@H](NC(=O)/C(=N\\OC(C)(C)C(=O)O)c2csc(N)n2)C(=O)N1S(=O)(=O)O"
  units text: "G/DL"
  HEMOGLOBIN: 13.4
